- RUN DESCRIPTION: Cytotoxicity against human HepG2.2.15 cells after 7 days by MTT assay
- Format: cell-based, HepG2 2.2.15

>  <SMILES RECORD>
Nc1ncnc2c1ncn2[C@@H]1C=C[C@H](CO)[C@H]1CO

>  <CC50 at 168 h>
> 100 µM

$$$$
>  <SMILES RECORD>
Nc1ncnc2c1ncn2[C@H]1C=C(F)[C@H](CO)[C@H]1CO

>  <CC50 at 168 h>
> 100 µM

$$$$
>  <SMILES RECORD>
C=C1[C@H](CO)[C@@H](O)C[C@@H]1n1cnc2c(=O)[nH]c(N)nc21

>  <CC50 at 168 h>
52.9 µM

$$$$
>  <SMILES RECORD>
Nc1ncnc2c1ncn2[C@H]1C=C(Br)[C@H](CO)[C@H]1CO

>  <CC50 at 168 h>
> 100 µM

$$$$

---

- RUN DESCRIPTION: Cytotoxicity against human MT2 cells after 7 days by MTT assay
- Assay type: cell-based

>  <SMILES RECORD>
Nc1ncnc2c1ncn2[C@H]1C=C(I)[C@H](CO)[C@H]1CO

>  <CC50 at 168 h>
> 100 µM

$$$$
>  <SMILES RECORD>
Nc1ncnc2c1ncn2[C@@H]1C=C[C@H](CO)[C@H]1CO

>  <CC50 at 168 h>
153 µM

$$$$
>  <SMILES RECORD>
Nc1ncnc2c1ncn2[C@H]1C=C(Cl)[C@H](CO)[C@H]1CO

>  <CC50 at 168 h>
> 100 µM

$$$$
>  <SMILES RECORD>
Nc1ncnc2c1ncn2[C@H]1C=C(F)[C@H](CO)[C@H]1CO

>  <CC50 at 168 h>
> 100 µM

$$$$
>  <SMILES RECORD>
Nc1ncnc2c1ncn2[C@H]1C=C(Br)[C@H](CO)[C@H]1CO

>  <CC50 at 168 h>
> 100 µM

$$$$

---

- RUN DESCRIPTION: Selectivity index, ratio of CC50 for cytotoxicity against human HepG2.2.15 cells to EC50 for HBV genotype D infected in human HepG2.2.15 cells
- Assay type: toxicity, cell-based
- CONDITION DESCRIPTION: read-out: Ratio CC50/EC50
OBSERVED PROPERTY: selectivity ratio

>  <SMILES RECORD>
Nc1ncnc2c1ncn2[C@H]1C=C(F)[C@H](CO)[C@H]1CO

>  <DATA VALUE>
5260

$$$$
